Reference for the values: patent US5059589A

tested on: intraocular pressure in rabbits; assay: Effects of topically administered renin inhibiting compounds on intraocular pressure of rabbits; type: in vivo, Male albino, New Zealand rabbits; conditions: topical 0.1 ml, 0.1% (w/v), 15 minutes after administration
Exercise: state measured Mean Intraocular Pressure in mmHg for each of the molecules provided.
Provide the reading as a plain figure in mmHg.

Query: Entry CCN1C[C@@H]([C@H](O)[C@H](CC2CCCCC2)NC(=O)[C@H](Cc2cnc[nH]2)NC(=O)[C@@H](CC(=O)N(C)CCOCOCCOC)Cc2ccccc2)OC1=O has what Mean Intraocular Pressure in mmHg?
Result: 13.0

Query: Would you mind telling me what Mean Intraocular Pressure in mmHg value was observed for CC(C)CC(=O)NCC[C@H](O)[C@H](CC1CCCCC1)NC(=O)C(Cc1cnc[nH]1)NC(=O)C(Cc1ccccc1)NC(=O)OC(C)(C)C (stereo partly drawn) ?
Result: 16.5

Query: Dear colleague, I am looking for the recorded Mean Intraocular Pressure in mmHg of the following molecule: CC(C)(C)OC(=O)NC(Cc1ccccc1)C(=O)NC(Cc1cnc[nH]1)C(=O)N[C@@H](CC1CCCCC1)[C@@H](O)[C@@H](O)CN (stereo partly drawn)
Result: 20.6

---

Tested on: intraocular pressure in rabbits
Assay: Effects of topically administered renin inhibiting compounds on intraocular pressure of rabbits
Format: in vivo, Male albino, New Zealand rabbits
Conditions: topical 0.1 ml, 0.1% (w/v), 30 minutes after administration
Experimental: The antiglaucoma activity of the compounds was tested by measuring the effect on intraocular pressure in rabbits as described by Tinjum, A.M., Acta Ophthalmologica, 50, 677 (1972). Male albino, New Zealand rabbits were placed in restraining devices and the intraocular pressure was measured with an applamatic tonometer. […]
Where a name gives a salt, the structure may show the parent alone.
observed.property: Mean Intraocular Pressure in mmHg (mmHg)
# output: bare number, implied unit mmHg

Query: Give the measured Mean Intraocular Pressure in mmHg of CC(C)C[C@H](O)[C@H](O)[C@H](CC1CCCCC1)NC(=O)[C@H](Cc1cnc[nH]1)NC(=O)[C@H](Cc1ccccc1)NC(=O)N1CCC(O)CC1 .
Result: 13.9

Query: Mean Intraocular Pressure in mmHg for CC(C)CC(NC(=O)C(Cc1ccccc1)NC(=O)CCCC(=O)O)C(=O)N[C@@H](CC1CCCCC1)[C@@H](O)[C@@H](O)CC(C)C (stereo partly drawn) ?
Result: 15.6

Query: I have this molecule here, COc1ccc(C[C@H](NC(=O)CC(C)(C)N)C(=O)N[C@@H](Cc2cnc[nH]2)C(=O)N[C@@H](CC2CCCCC2)[C@@H](O)[C@@H](O)CC(C)C)cc1 [Compound II, di-acetic acid salt] , and I need its recorded Mean Intraocular Pressure in mmHg.
Result: 13.2

Query: Which Mean Intraocular Pressure in mmHg is reported for this molecule? C=C(C[C@H](O)[C@H](O)[C@H](CC1CCCCC1)NC(=O)C(Cc1cnc[nH]1)NC(=O)C(Cc1ccccc1)NC(=O)OC(C)(C)C)C(=O)[O-].[Na+] (stereo partly drawn)
Result: 12.4

Query: Could you tell me which Mean Intraocular Pressure in mmHg is on file for CCN1C[C@@H]([C@H](O)[C@H](CC2CCCCC2)NC(=O)[C@H](Cc2cnc[nH]2)NC(=O)[C@@H](CC(=O)N(C)CCOCOCCOC)Cc2ccccc2)OC1=O ?
Result: 13.3

Query: State the recorded Mean Intraocular Pressure in mmHg for this entry: CC(C)(C)OC(=O)NC(Cc1ccccc1)C(=O)NC(Cc1cnc[nH]1)C(=O)NC(CC1CCCCC1)C(O)CSC1CCCCC1 (stereo not drawn)
Result: 15.2
